biological target: GlcNAc(b1-2)[GlcNAc(b1-6)]Man(a1-6)[GlcNAc(b1-2)Man(a1-3)]Man(b1-4)GlcNAc(b1-4)GlcNAc; test: glycan array binding signal (z-score within array); higher = stronger binding; conditions: glycan notation: IUPAC condensed, linker removed
The sample as a whole holds a higher share of the strongest signals than the screen did.

>  <binder>
Gal 4 (Canis lupus) (protein) MAYVPAPGYQPTYNPTLPYNKPIPGGLSVGMSVYIQGITSEHMRRFCVNFVAGAHPGSDIAFHFNPRFDGWDKVVFNSHLGGKWGSEEKKRSMPFRKGTHFELVFMVLAEHYKVVVNGNPFYEFGHRLPLQLVTHLQVEGDVELQSINFIGGTQPLGQGPGHTQQQPSSLPTMEGPPVFNPPVPFRKRLQGGLTVRRTVIIKGFVPFTSKSFVINFMVESSGDLALHINPRLTEGLVVRNSCLNGSWGSEDRKLSYNPFIPGQFFDLSIRCGMDRFKVYANGQHLFDFSHRLLALQNVDMLEINGDVTLSYIQV

>  <glycan array binding signal (z-score)>
-0.148

$$$$
>  <binder>
CVN (Nostoc ellipsosporum), P81180 (protein) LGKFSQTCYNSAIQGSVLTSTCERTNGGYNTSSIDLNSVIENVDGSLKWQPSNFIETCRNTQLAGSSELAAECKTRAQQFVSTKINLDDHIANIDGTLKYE

>  <glycan array binding signal (z-score)>
-0.3

$$$$
>  <binder>
VLRB.aGPA.23-GCN4-biotin (Petromyzon marinus) (protein) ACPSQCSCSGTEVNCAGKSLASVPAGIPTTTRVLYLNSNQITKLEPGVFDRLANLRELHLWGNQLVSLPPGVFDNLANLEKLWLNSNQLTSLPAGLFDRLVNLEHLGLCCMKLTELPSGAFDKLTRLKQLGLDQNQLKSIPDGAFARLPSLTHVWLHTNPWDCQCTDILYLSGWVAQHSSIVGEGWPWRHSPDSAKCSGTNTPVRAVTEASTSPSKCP

>  <glycan array binding signal (z-score)>
-0.079

$$$$

These data points were gathered from the supplement of paper PMC8728848.
